Tgt: T1, human CD117 on cells (SKMEL-3 cells, CD34+ HSC) (human, UniProt P10721 26-976)
T1 construct: whole, on cells; also called CD117 on cell surfaces; CD117+ cells
Protocol Text: flow cytometry, skMEL-3 cells, monomeric Fc
Value Type: EC50

• P-0038 (Fc fusion, Any second Fc chain without VHH is not described in the text; also called monovalent form of P38; not shown: Fc fragment) EVQLVESGGGLVQAGGSLRLSCAASGRTSGSYVMGWFRQAPGKEREFVAAISWSAGMTYYADSVKGRFTISRDNAKNTVYLQMNSLKPEDTAVYYCAADQRGVPAYYSDYALYDYWGQGTQVTVSS = 10 nM
• P-0029 (Fc fusion, Any second Fc chain without VHH is not described in the text; also called monovalent form of P29; not shown: Fc fragment) QVHLVESGGGLVQAGGSLGLSCAASGHTFSNYAMGWFRQAPGKEREFVAAISWSGGSTLYADSVKGRFTISRDNGENTVYLQMNSLKPEDTAVYYCALDSTGVYGTGYVSSRKGRYEYWGQGTLVTVSS = > 50 nM
• P-0012 (Fc fusion, Any second Fc chain without VHH is not described in the text; also called monovalent form of P12; not shown: Fc fragment) QVQLVESGGGLVQAGGSLRLSCTASGDTFSSYSMGWFRQGPGKEREFVGGIRWSGGTTYYADSVKGRFTISRDNAKNTVYLQMNSLKREDTAVYYCAAVRRRWLIWQEEEYDYWGQGTLVTVSS = > 10 nM
• P-0031 (Fc fusion, Any second Fc chain without VHH is not described in the text; also called monovalent form of P31; not shown: Fc fragment) EVQLVESGGGLVRAGGSLRLSCAASGRTFTYDARAWFRQAPGKEREFVAAISWSGGSTYYPNSMKGRFTISRDNAKNTVYLQMNSLKPEDTAVYYCAADESFPAYYSDYALYRYWGQGTLVTVSS = 3 nM
• P-0035 (Fc fusion, Any second Fc chain without VHH is not described in the text; also called monovalent form of P35; not shown: Fc fragment) QVQLVESGGGLVQAGGSLRLSCAASGGTFSIYPVGWFRQAPGKQREFVAAIGWSASGTYYGDSVEGRFTVSRDNARSTVYLRMSSLKPDDTAVYYCAAASGSNWRLGAIDEYDSWGQGTQVTVSS = 10 nM

Would you kindly share the measured EC50 for P-0037 (Fc fusion, Any second Fc chain without VHH is not described in the text; also called monovalent form of P37; not shown: Fc fragment) QVQLVESGGGLVQAGDSLRLSCAVSGRTLSNYFMAWLRQAPGKEREFVAAIHWSLGSTYYQDPVKGRFTISRDKAKNTVYLQMNTLKPEDTATYICAAGQHLSGLGGSAWSIEGDYWGQGTQVTVSS ?
20 nM

EC50 for P-0027 (Fc fusion, Any second Fc chain without VHH is not described in the text; also called monovalent form of P27; not shown: Fc fragment) EVQLVESGGGLVRAGGSLRLSCAASGRTTFSTYWLGWFRQAPGKNREFVAAISWSAGMAYYQDSKGRFTISRDNTKNTAYLQMNSLQPEDTAVYYCAAGRFHPIRVDTALYWAQGTQVTVSS ?
10 nM

Value lookup for EC50; key = P-0010 (Fc fusion, Any second Fc chain without VHH is not described in the text; also called monovalent form of P10; not shown: Fc fragment) QVQLVESGGGLVQAGGSLRLSCVASGRTFSSYAMGWFRQGPGKEREFAAAILSNGLTTYYADSVKGRFTISRDNAKDTVYLQMNSLKPEDTANYYCAAAFTPEFRDGGIWDDASVDYWGQGTQVTVSS
2 nM
